I'd appreciate it if you could supply mortality at 0.1 % strength values for the items below.
# Tested on: caterpillars of the diamond-back moth (Plutella maculipennis)
# ASSAY INFO: Plutella Test
# Format: in vivo
# COND: 72 h, 0.1 % active compound, after 3 days, read-out: Degree of destruction in % after 3 days
Express it in %; write the number only.

// query Return value of mortality at 0.1 % strength for input CCOP(=S)(Oc1ccc(S(C)(=O)=O)cc1)SC (stereo not drawn) [drawing 17, reference compound] , no commentary.
// result 100

// query For the molecule CCCSP(=S)(OCC)Oc1ccc(Cl)cc1Cl (stereo not drawn) [drawing 21] , report mortality at 0.1 % strength.
// result 100

// query Return mortality at 0.1 % strength for the following molecule: CCCSP(=S)(OCC)Oc1ccc(S(C)(=O)=O)cc1Br (stereo not drawn) [drawing 22]
// result 100

// query Provide measured mortality at 0.1 % strength value, entry: CCCSP(=S)(OCC)Oc1ccc(S(=O)(=O)CCl)cc1 (stereo not drawn) [drawing 19]
// result 100

// query Output measured mortality at 0.1 % strength for this item: CCCSP(=S)(OCC)Oc1ccc(S(C)(=O)=O)cc1 (stereo not drawn) [drawing 18]
// result 100

// query Complete the entry with mortality at 0.1 % strength for CCCSP(=S)(OCC)Oc1ccc(S(C)(=O)=O)cc1Cl (stereo not drawn) [drawing 20]
// result 100

###

# Test system: peach aphids (Myzus persicae)
# ASSAY INFO: Myzus Test (contact action)
# Format: in vivo
# COND: 24 h, 0.02 % active compound, after 1 day, read-out: Degree of destruction in % after 1 day
READOUT NAME: mortality at 0.02 % strength

// query For peach aphids (Myzus persicae), give mortality at 0.02 % strength of the listed molecule: CCCSP(=S)(OCC)Oc1ccc(S(C)(=O)=O)cc1Cl (centres unmarked) [drawing 29]
// result 90%

// query Lab note: peach aphids (Myzus persicae) assay, enter mortality at 0.02 % strength for CCCSP(=S)(OCC)Oc1ccc(S(=O)(=O)CCl)cc1 (centres unmarked) [drawing 30] here
// result 70%

// query Report its mortality at 0.02 % strength with peach aphids (Myzus persicae) as the test system: CCOP(=S)(Oc1ccc(S(C)(=O)=O)cc1)SC (centres unmarked) [drawing 27, reference compound]
// result 0%

// query Recall the reported mortality at 0.02 % strength of CCCSP(=S)(OCC)Oc1ccc(S(C)(=O)=O)cc1 (centres unmarked) [drawing 28] on peach aphids (Myzus persicae) and write it down.
// result 60%

// query Recall the reported mortality at 0.02 % strength of CCCSP(=S)(OCC)Oc1ccc(S(=O)(=O)CCl)cc1Cl (centres unmarked) [drawing 31] on peach aphids (Myzus persicae) and write it down.
// result 55%

###

# Tested on: larvae of mustard beetles (Phaedon cochleariae)
# ASSAY INFO: Phaedon-Larvae-Test
# Type: in vivo
# COND: in Brassica, 72 h, 0.004 % active compound, after 3 days, read-out: Degree of destruction in % after 3 days
Please go through the items and note down their mortality at 0.004 % strength.
Reply with the number and its unit after it.

// query State, in one line, measured mortality at 0.004 % strength of CCCSP(=S)(OCC)Oc1ccc(S(C)(=O)=O)cc1 (stereo not shown) [drawing 25]
// result 100%

// query Item CCCSP(=S)(OCC)Oc1ccc(Cl)cc1Cl (stereo not shown) [drawing 23, reference compound] : provide mortality at 0.004 % strength
// result 20%

// query Fill in mortality at 0.004 % strength for record CCCSP(=S)(OCC)Oc1ccc(S(C)(=O)=O)cc1Br (stereo not shown) [drawing 26]
// result 100%

// query Consider the molecule CCOP(=S)(Oc1ccc(S(C)(=O)=O)cc1)SC (stereo not shown) [drawing 24] . State its measured mortality at 0.004 % strength.
// result 15%

###

# ASSAY INFO: Toxicity test (peroral), albino rat
# COND: in vivo, po, evaluation after 7 days, read-out: LD50 values (in mg/kg of body weight)
READOUT NAME: LD50 at 168 h

// query Return value of LD50 at 168 h for input CCOP(=S)(OCC)Oc1ccc(S(=O)(=O)CCl)cc1 [drawing 8, reference compound] , no commentary.
// result 2.5 to 5 mg/kg

// query For the compound CCCSP(=S)(OCC)Oc1ccc(S(=O)(=O)CCl)cc1 (stereo not drawn) [drawing 11] , give its measured LD50 at 168 h value.
// result ~250 mg/kg

// query Please list LD50 at 168 h recorded for the compound CCCSP(=S)(OCC)Oc1ccc(S(=O)(=O)CCl)cc1Cl (stereo not drawn) [drawing 12]
// result 100 to 250 mg/kg

// query For the compound CCCSP(=S)(OCC)Oc1ccc(S(C)(=O)=O)cc1Cl (stereo not drawn) [drawing 9] , report LD50 at 168 h.
// result 50 to 100 mg/kg

// query Hello, please tell me recorded LD50 at 168 h for this one: CCCSP(=S)(OCC)Oc1ccc(S(C)(=O)=O)cc1Br (stereo not drawn) [drawing 10]
// result 50 to 100 mg/kg

// query Read off the recorded LD50 at 168 h for CCCSP(=S)(OCC)Oc1ccc(SC(F)C(=O)OCC)cc1 (stereo not drawn) [drawing 13]
// result 100 to 250 mg/kg

###

# System: caterpillars of the diamond-back moth (Plutella maculipennis)
# ASSAY INFO: Plutella Test
# Type: in vivo
# COND: 72 h, 0.004 % active compound, after 3 days, read-out: Degree of destruction in % after 3 days
READOUT NAME: mortality at 0.004 % strength
Remember to follow the number with its unit.

// query For CCCSP(=S)(OCC)Oc1ccc(S(C)(=O)=O)cc1 (stereo not drawn) [drawing 18] , write its mortality at 0.004 % strength.
// result 100%

// query Input CCCSP(=S)(OCC)Oc1ccc(S(C)(=O)=O)cc1Cl (stereo not drawn) [drawing 20] , output reported mortality at 0.004 % strength.
// result 100%

// query Please indicate mortality at 0.004 % strength recorded for CCCSP(=S)(OCC)Oc1ccc(Cl)cc1Cl (stereo not drawn) [drawing 21]
// result 100%

// query Provide one value: measured mortality at 0.004 % strength of CCOP(=S)(Oc1ccc(S(C)(=O)=O)cc1)SC (stereo not drawn) [drawing 17, reference compound]
// result 0%

// query Input CCCSP(=S)(OCC)Oc1ccc(S(=O)(=O)CCl)cc1 (stereo not drawn) [drawing 19] , output reported mortality at 0.004 % strength.
// result 100%

// query Using known records, supply mortality at 0.004 % strength for CCCSP(=S)(OCC)Oc1ccc(S(C)(=O)=O)cc1Br (stereo not drawn) [drawing 22]
// result 100%

###

Exercise: for every item that follows, state its recorded mortality at 0.02 % strength.
# System: caterpillars of the diamond-back moth (Plutella maculipennis)
# ASSAY INFO: Plutella Test
# Type: in vivo
# COND: 72 h, 0.02 % active compound, after 3 days, read-out: Degree of destruction in % after 3 days
Write down the numeric answer in % and omit the unit.

// query Report measured mortality at 0.02 % strength on caterpillars of the diamond-back moth (Plutella maculipennis); entry: CCCSP(=S)(OCC)Oc1ccc(S(C)(=O)=O)cc1Cl (stereo not drawn) [drawing 20]
// result 100

// query // fetch mortality at 0.02 % strength; item: CCCSP(=S)(OCC)Oc1ccc(S(C)(=O)=O)cc1Br (stereo not drawn) [drawing 22] ; system: caterpillars of the diamond-back moth (Plutella maculipennis)
// result 100

// query Under caterpillars of the diamond-back moth (Plutella maculipennis): report mortality at 0.02 % strength of CCOP(=S)(Oc1ccc(S(C)(=O)=O)cc1)SC (stereo not drawn) [drawing 17, reference compound] .
// result 85

// query Report mortality at 0.02 % strength from caterpillars of the diamond-back moth (Plutella maculipennis) testing of CCCSP(=S)(OCC)Oc1ccc(S(C)(=O)=O)cc1 (stereo not drawn) [drawing 18]
// result 100

// query Supply mortality at 0.02 % strength measured with caterpillars of the diamond-back moth (Plutella maculipennis) for CCCSP(=S)(OCC)Oc1ccc(Cl)cc1Cl (stereo not drawn) [drawing 21] .
// result 100

// query Send back caterpillars of the diamond-back moth (Plutella maculipennis) mortality at 0.02 % strength of CCCSP(=S)(OCC)Oc1ccc(S(=O)(=O)CCl)cc1 (stereo not drawn) [drawing 19] only.
// result 100
